tested.system: human 5-HT2C receptor (Homo sapiens, UniProt P28335)
Sequence (P28335 33-458): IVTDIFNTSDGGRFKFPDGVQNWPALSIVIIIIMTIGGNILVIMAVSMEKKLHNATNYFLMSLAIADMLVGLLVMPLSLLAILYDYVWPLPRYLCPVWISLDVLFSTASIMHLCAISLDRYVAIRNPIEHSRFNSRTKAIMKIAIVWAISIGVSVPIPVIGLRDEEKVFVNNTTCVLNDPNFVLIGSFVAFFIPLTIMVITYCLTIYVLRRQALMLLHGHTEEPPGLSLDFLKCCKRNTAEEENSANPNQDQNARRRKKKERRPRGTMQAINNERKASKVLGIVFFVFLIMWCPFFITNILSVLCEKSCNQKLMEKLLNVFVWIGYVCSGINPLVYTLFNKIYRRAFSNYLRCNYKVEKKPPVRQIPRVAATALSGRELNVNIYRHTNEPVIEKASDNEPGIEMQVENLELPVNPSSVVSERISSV
assay.protocol: 5-HT2C receptor-stimulated calcium mobilization (FLIPR) in CHO cells;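 further: Fluo-3-AM fluorescence read on FLIPR every 1 s, agonist added after 10 baseline reads, response taken as peak minus lowest raw fluorescence count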
Assay type: cell-based
test.context: CHO, percentage of the response observed with a maximally effective concentration of 5-HT; read-out: 5-HT2C Function Emax (%)
Here the recorded Emax is given for each entry.
quantity.kind: Emax (%)

>>> result_number("COc1ccc(OC)c(-c2cc(OC)cc3c2OC(CN)C3)c1 (racemic) [Example 371]")
80
>>> result_number("Cc1ccc(C)c(-c2cccc3c2OC(CN)C3)c1 (racemic) [Example 161]")
90
>>> result_number("COc1ccc(C)c(-c2cc(F)cc3c2OC(CN)C3)c1 (racemic) [Example 224]")
70
>>> result_number("NCC1Cc2cccc(C3CCCC3)c2O1 (racemic) [Example 8]")
85
>>> result_number("CNCC1Cc2cc(F)cc(-c3ccccc3OC)c2O1 (racemic) [Example 443]")
90

Cited source for all entries: patent US7435837B2
